B1: NELF-E aptamer (parent)
chain: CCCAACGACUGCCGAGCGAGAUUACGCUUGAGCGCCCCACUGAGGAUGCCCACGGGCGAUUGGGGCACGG

variants of: B1; test: HiTS-RAP; settings: with NELF-E (Drosophila)
pKd: −log10 of the molar value.
Measured pKd of individual entries
Readout name: pKd

Mut: A24U U41G
Measured result: 8.18

Mut: G30U A31G
Measured result: 8.19

Mut: G7U U47A
Measured result: 7.89

Mut: G34A A52U
Measured result: 7.68

Mut: U29G G45A
Measured result: 7.13

Mut: C6G G64A
Measured result: 8.12

Mut: A4U C12G
Measured result: 8.24

Mut: G14A C17G
Measured result: 8.22

Mut: A4G G45A
Measured result: 7.07

Mut: A19G A24G
Measured result: 8.21

Mut: A24G G56A
Measured result: 7.92

Mut: A5U U23G
Measured result: 8.22

Mut: C12U C13U
Measured result: 8.47

Mut: U22G U28G
Measured result: 8.16

Mut: U10G A59U
Measured result: 7.15

Mut: U10G C27U
Measured result: 8.41

Mut: A4G A21U
Measured result: 8.23

Mut: A5G A39U
Measured result: 7.46

Mut: G11U C27U
Measured result: 8.31

Mut: C38A
Measured result: 7.50

Mut: U10C G14U
Measured result: 8.31

Mut: A8G U61A
Measured result: 7.53

Mut: U41G G65U
Measured result: 8.22

Mut: U23G U41C
Measured result: 7.03

Mut: A8U C25U
Measured result: 8.22

Mut: U23G
Measured result: 8.30
